studySystem: CDK6/cyclin D1 (Homo sapiens)
Sequence (Q00534 whole entry, species assumed): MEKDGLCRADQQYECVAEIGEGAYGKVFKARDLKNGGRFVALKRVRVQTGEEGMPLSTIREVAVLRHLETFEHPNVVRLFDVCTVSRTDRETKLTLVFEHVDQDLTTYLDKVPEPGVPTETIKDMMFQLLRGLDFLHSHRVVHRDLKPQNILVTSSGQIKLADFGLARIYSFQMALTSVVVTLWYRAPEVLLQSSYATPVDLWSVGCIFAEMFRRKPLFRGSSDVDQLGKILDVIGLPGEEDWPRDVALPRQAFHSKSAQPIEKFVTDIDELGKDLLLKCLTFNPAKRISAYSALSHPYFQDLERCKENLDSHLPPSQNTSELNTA
Sequence (P24385 whole entry partner, species assumed): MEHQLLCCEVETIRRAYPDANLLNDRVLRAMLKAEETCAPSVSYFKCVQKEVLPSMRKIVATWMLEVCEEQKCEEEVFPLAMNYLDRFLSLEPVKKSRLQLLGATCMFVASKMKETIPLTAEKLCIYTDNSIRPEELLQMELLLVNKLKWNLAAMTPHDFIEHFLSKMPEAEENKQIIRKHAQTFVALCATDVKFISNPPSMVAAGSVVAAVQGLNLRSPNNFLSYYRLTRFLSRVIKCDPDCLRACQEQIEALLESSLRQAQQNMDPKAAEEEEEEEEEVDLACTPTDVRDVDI
testName: Biochemical kinase inhibition test, CDK6/cyclin D1 (similar method)
testParameters: three-fold serial dilution from 10 μM; 10 μM ATP; read-out: CDK6/D1 (nM), enzyme inhibitory activity IC50
metric: IC50

Solved entries:
c1cc(Nc2ncc3ccc4cnn(C5CC5)c4c3n2)ncc1N1CCOCC1	5 to 10 nM
CCN1CCN(c2ccc(Nc3ncc4cc(C)c5cnn(C(C)C)c5c4n3)nc2)CC1	1 to 5 nM
Cc1cc(Nc2ncc3ccc4cnn(C(C)C)c4c3n2)ncc1N1CCNCC1	10 to 20 nM

Please examine the following record next.
Reported IC50, compound CCN1CCN(c2cnc(Nc3ncc4ccc5cnn(CC)c5c4n3)cc2C)CC1 : ____ 10 to 20 nM

====

Measured IC50 of individual entries
studySystem: CDK6/cyclin D1 (Homo sapiens)
testName: Biochemical kinase inhibition test, CDK6/cyclin D1 (similar method)
testParameters: three-fold serial dilution from 10 μM; 10 μM ATP; read-out: CDK6/D1 (nM), enzyme inhibitory activity IC50

# example entries with known answers
CCn1ncc2ccc3cnc(Nc4cc(F)c(N5CCNCC5)cn4)nc3c21.Cl	10 to 20 nM
COc1cc(OC)cc(-c2cc3cnc(Nc4ccc(N5CCOCC5)cn4)nc3c3c2cnn3C(C)C)c1	1 to 5 nM
CCN1CCN(c2ccc(Nc3ncc4ccc5cnn(C(C)C)c5c4n3)nc2)CC1	1 to 5 nM
Cc1cc(Nc2ncc3ccc4cnn(C(C)C)c4c3n2)ncc1N1CCOCC1	10 to 20 nM
COc1ccc2cc(Nc3ncc4ccc5cnn(C(C)C)c5c4n3)ccc2n1	20 to 50 nM
CC(C)n1ncc2ccc3cnc(Nc4ccc(C(=O)N5CCC(N6CCN(C)CC6)CC5)cn4)nc3c21	50 to 100 nM
Cl.Fc1cc(Nc2ncc3ccc4cnn(C5CC5)c4c3n2)ncc1N1CCNCC1	10 to 20 nM
CCN1CCN(c2ccc(Nc3ncc4cc(-c5cc(OC)cc(OC)c5)c5cnn(C(C)C)c5c4n3)nc2)CC1	1 to 5 nM

Which IC50 is listed for CC(=O)c1cc2cnc(Nc3ccc(N4CCN(C)CC4)cn3)nc2c2c1cnn2C(C)C ? < 1 nM

For CCN1CCN(c2ccc(Nc3ncc4cc(C#N)c5cnn(C(C)C)c5c4n3)nc2)CC1 , what is its reported IC50? 1 to 5 nM

What value of measured IC50 is listed for CC(C)n1ncc2ccc3cnc(N4CCC[C@@H]4c4cc(F)ccc4F)nc3c21 ? 50 to 100 nM

Suppose we examine the compound Cc1nc(Nc2ncc3ccc4cnn(C(C)C)c4c3n2)ccc1N1CCOC(C)C1 (stereo not drawn) ; what IC50 value has been reported? 10 to 20 nM

Endpoint output: IC50 of CC(C)n1ncc2ccc3cnc(Nc4ccc(N5CCNC(C)(C)C5)cn4)nc3c21 . Value? 10 to 20 nM

I would be grateful if you could share the reported IC50 for CCN1CCN(c2ccc(Nc3ncc4ccc5cnn(C6CCCC6)c5c4n3)nc2)CC1 . 1 to 5 nM

====

studySystem: recombinant CDK4/Cyclin D1 (Homo sapiens)
Construct: purchased Life Technologies PV4204
Sequence (P11802 whole entry, one chain of several): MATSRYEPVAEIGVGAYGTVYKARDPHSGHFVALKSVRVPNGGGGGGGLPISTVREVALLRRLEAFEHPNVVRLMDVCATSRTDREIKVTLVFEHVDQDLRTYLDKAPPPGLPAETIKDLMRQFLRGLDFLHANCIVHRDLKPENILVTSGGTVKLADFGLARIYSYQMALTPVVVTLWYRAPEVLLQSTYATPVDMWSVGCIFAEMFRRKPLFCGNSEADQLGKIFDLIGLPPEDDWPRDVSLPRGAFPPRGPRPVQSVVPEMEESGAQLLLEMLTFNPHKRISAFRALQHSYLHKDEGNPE
testName: Biochemical kinase inhibition test, CDK4/Cyclin D1 (32P-ATP, retinoblastoma protein substrate)
testParameters: three-fold serial dilution from 10 μM; 10 μM ATP; read-out: CDK4/D1 (nM), enzyme inhibitory activity IC50
Where a name gives a salt, the structure may show the parent alone.
metric: IC50

Past entries and their recorded results:
Cc1nc(Nc2ncc3ccc4cnn(C(C)C)c4c3n2)ccc1N1CCS(=O)(=O)CC1	10 to 20 nM
Cc1cc2cnc(Nc3cc(F)c(N4CCNCC4)cn3)nc2c2c1cnn2C(C)C.Cl	20 to 50 nM
CCn1ncc2ccc3cnc(Nc4cc(C)c(N5CCN(C)CC5)cn4)nc3c21	20 to 50 nM
Cc1cc(Nc2ncc3ccc4cnn(C(C)C)c4c3n2)ncc1N1CCOC(C)C1 (stereo not drawn)	20 to 50 nM
Cc1cc(Nc2ncc3ccc4cnn(C(C)C)c4c3n2)ncc1N1CCNCC1	5 to 10 nM

Find IC50 (recombinant CDK4/Cyclin D1 (Homo sapiens)) for the entry Cl.Fc1cc(Nc2ncc3ccc4cnn(C5CC5)c4c3n2)ncc1N1CCNCC1 20 to 50 nM

Given the entry Cc1cc2cnc(Nc3ccc(N4CCN(C)CC4)cn3)nc2c2c1cnn2C(C)C , what IC50 was observed with recombinant CDK4/Cyclin D1 (Homo sapiens)? 10 to 20 nM

Return IC50 measured with recombinant CDK4/Cyclin D1 (Homo sapiens) given this molecule: CCN1CCN(c2ccc(Nc3ncc4cc(-c5cc(OC)cc(OC)c5)c5cnn(C(C)C)c5c4n3)nc2)CC1 5 to 10 nM

// map CC(C)n1ncc2ccc3cnc(Nc4ccc(N5C[C@@H](C)N[C@@H](C)C5)cn4)nc3c21 to recorded IC50 (system: recombinant CDK4/Cyclin D1 (Homo sapiens)) 5 to 10 nM

# returns recorded IC50 (system: recombinant CDK4/Cyclin D1 (Homo sapiens)) for Cc1cc(Nc2ncc3ccc4cnn(C(C)C)c4c3n2)ncc1N1CCOCC1 20 to 50 nM

Any idea what IC50 came out for CC(C)n1ncc2ccc3cnc(Nc4ccc(N5CCS(=O)(=O)CC5)cn4)nc3c21 on recombinant CDK4/Cyclin D1 (Homo sapiens)? 10 to 20 nM

What value of IC50 on recombinant CDK4/Cyclin D1 (Homo sapiens) does CC(C)n1ncc2ccc3cnc(Nc4ccc(N5CCN(C)CC5)cn4)nc3c21 have? 1 to 5 nM

Give IC50 (recombinant CDK4/Cyclin D1 (Homo sapiens)) of the following molecule: COc1cc(OC)cc(-c2cc3cnc(Nc4ccc(N5CCOCC5)cn4)nc3c3c2cnn3C(C)C)c1 5 to 10 nM

Could you share what IC50 was measured for CC(C)n1ncc2ccc3cnc(Nc4ccc(N5CCNCC5)cn4)nc3c21 [Compound I-1, hydrochloride] , tested on recombinant CDK4/Cyclin D1 (Homo sapiens)? < 1 nM

Quick check: IC50 on recombinant CDK4/Cyclin D1 (Homo sapiens), item CC(C)n1ncc2ccc3cnc(Nc4ccc(N5C[C@@H](C)O[C@@H](C)C5)cn4)nc3c21 ? 5 to 10 nM

Could you share what IC50 was measured for c1cc(Nc2ncc3ccc4cnn(C5CCCC5)c4c3n2)ncc1N1CCNCC1 , tested on recombinant CDK4/Cyclin D1 (Homo sapiens)? 1 to 5 nM

Query the reported IC50 for recombinant CDK4/Cyclin D1 (Homo sapiens); item: CC(C)n1ncc2ccc3cnc(Nc4ccc(N5CCC6(CC5)CNC6)cn4)nc3c21 1 to 5 nM

Give IC50 (recombinant CDK4/Cyclin D1 (Homo sapiens)) of the following molecule: CC(C)n1ncc2c(Br)cc3cnc(Nc4ccc(N5CCN(C)CC5)cn4)nc3c21 10 to 20 nM

The measurements presented in this section are drawn from patent US11993604B2.
